These entries and their values trace back to patent US10538487B2.

target: NLRP3 inflammasome (Homo sapiens); experiment: Inhibition of IL-1β release, NLRP3 inflammasome activation assay in HMDM; type: cell-based; conditions: inhibition of IL-1β release, class symbols, read-out: Avg. IL-1β IC50 HMDM
Sequence (Q96P20 whole entry): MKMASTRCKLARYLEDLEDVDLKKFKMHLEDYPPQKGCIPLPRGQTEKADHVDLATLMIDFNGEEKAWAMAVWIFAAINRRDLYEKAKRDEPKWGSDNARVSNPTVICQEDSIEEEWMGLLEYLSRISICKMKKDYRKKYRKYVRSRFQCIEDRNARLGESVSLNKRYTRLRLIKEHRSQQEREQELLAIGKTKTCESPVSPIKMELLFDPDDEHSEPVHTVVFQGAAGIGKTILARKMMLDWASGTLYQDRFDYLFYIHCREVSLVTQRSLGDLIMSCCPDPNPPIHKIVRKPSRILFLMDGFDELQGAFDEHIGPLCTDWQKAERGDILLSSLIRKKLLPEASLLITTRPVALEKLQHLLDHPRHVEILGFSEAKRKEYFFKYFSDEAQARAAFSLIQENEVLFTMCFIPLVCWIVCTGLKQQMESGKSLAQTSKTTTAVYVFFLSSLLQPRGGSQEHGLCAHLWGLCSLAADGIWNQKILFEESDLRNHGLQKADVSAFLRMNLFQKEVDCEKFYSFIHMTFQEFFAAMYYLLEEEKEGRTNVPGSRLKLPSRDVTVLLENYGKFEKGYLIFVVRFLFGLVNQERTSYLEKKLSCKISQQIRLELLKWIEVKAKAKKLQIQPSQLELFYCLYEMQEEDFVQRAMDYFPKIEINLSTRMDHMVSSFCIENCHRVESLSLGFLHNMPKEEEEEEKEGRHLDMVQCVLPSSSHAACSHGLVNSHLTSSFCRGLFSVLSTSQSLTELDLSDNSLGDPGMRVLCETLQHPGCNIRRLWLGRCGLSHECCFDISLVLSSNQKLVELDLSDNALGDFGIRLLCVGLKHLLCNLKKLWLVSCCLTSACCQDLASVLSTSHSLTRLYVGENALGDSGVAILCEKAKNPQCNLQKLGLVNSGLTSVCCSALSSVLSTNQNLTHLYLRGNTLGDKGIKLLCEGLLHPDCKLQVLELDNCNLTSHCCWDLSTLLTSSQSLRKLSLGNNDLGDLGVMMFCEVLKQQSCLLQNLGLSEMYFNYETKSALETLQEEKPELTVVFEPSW
pIC50: −log10 of the molar value.

| compound | pIC50 |
| --- | --- |
| COc1cccc(S(=O)(=O)NC(=O)Nc2c3c(cc4c2CCC4)CCC3)c1 | > 7.00 |
| O=C(Nc1c2c(cc3c1CCC3)CCC2)NS(=O)(=O)c1cc2ccccc2o1 | > 6.00 |
| CC(C)(O)c1ccnc(S(=O)(=O)NC(=O)Nc2c3c(cc4c2CCC4)CCC3)c1 | > 7.00 |
| CC(c1ccccc1)n1ccc(S(=O)(=O)NC(=O)Nc2c3c(cc4c2CCC4)CCC3)n1 (stereo not drawn) | > 6.00 |
| CC(C)c1cc(Cl)cc(C(C)C)c1NC(=O)NS(=O)(=O)c1cccc2cnccc12 | > 6.00 |
| CC(C)(O)c1cccc(S(=O)(=O)NC(=O)Nc2c3c(cc4c2CCC4)CCC3)c1 | > 7.00 |
| CC(C)n1ccc(S(=O)(=O)NC(=O)Nc2c(C3CC3)cc(Cl)c3c2CCC3)n1 | > 6.00 |
| Cn1nc(S(=O)(=O)NC(=O)Nc2c3c(cc4c2CCC4)CCC3)cc1C(C)(C)O | > 7.00 |
| O=C(Nc1c2c(cc3c1CCC3)CCC2)NS(=O)(=O)N1CCOCC1 | > 5.00 |
| [2H]C([2H])([2H])C(O)(c1cc(S(=O)(=O)NC(=O)Nc2c3c(cc4c2CCC4)CCC3)oc1C)C([2H])([2H])[2H] | > 7.00 |
| CC(C)c1cc(Cl)cc(C(C)C)c1NC(=O)NS(=O)(=O)c1cc2ccccc2s1 | > 7.00 |
| CC(C)(C)n1ccc(S(=O)(=O)NC(=O)Nc2c3c(cc4c2CCC4)CCC3)n1 | > 7.00 |
| CCc1cc(Cl)cc(CC)c1NC(=O)NS(=O)(=O)c1ccn(C(C)C)n1 | > 5.00 |
| O=C(Nc1c2c(cc3c1CCC3)CCC2)NS(=O)(=O)c1ccc2c(c1)OCO2 | > 6.00 |
| Cc1c2c(c(NC(=O)NS(=O)(=O)c3cc(C(C)(C)O)co3)c3c1CCC3)CCC2 | > 7.00 |
| COc1cc(Cl)cc(OC)c1NC(=O)NS(=O)(=O)c1ccn(C(C)C)n1 | > 4.30 |
| CN(C)S(=O)(=O)c1cccc(S(=O)(=O)NC(=O)Nc2c3c(cc4c2CCC4)CCC3)c1 | > 7.00 |
| COc1ccc(Cl)cc1C(=O)NCCc1ccc(S(=O)(=O)NC(=O)Nc2c3c(cc4c2CCC4)CCC3)cc1 | > 6.00 |

###

Below is a list of entries, each paired with its recorded AUC0-inf value.
assay: Single dose pharmacokinetic study in mice (iv 4 mg/Kg, po 20 mg/Kg), plasma concentration post-dosing; type: in vivo, mouse; conditions: male, C57BL/6, mouse, plasma, po, 20 mg/kg, mouse, PO 20 mg/Kg, individual mice M4-M6; read-out: AUC0-inf

| compound | AUC0-inf / µg·h/mL |
| --- | --- |
| CC(C)(O)c1coc(S(=O)(=O)NC(=O)Nc2c3c(cc4c2CCC4)CCC3)c1 [MCC_000950_016, reference compound] | 108 |
| CC(C)n1ccc(S(=O)(=O)NC(=O)Nc2c3c(cc4c2CCC4)CCC3)n1 | 368 |
